B1: Azoarcus group I ribozyme (parent)
chain: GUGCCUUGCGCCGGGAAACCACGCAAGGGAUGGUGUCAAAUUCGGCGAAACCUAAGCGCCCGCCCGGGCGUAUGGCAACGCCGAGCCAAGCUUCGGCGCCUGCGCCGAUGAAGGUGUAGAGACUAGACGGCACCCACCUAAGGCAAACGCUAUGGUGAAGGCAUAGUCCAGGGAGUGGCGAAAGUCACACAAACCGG

# Variants of: B1
# assay-protocol: reverse-splicing fitness (ratio to wild type); higher = more active; in vitro selection; Mg2+ level not given

variant-identifier	reverse-splicing fitness
C82A A111G C150G U176A	0.00793
C82A A111C A145U C150U C169G U176A	0.0143
C82G A111U A120U A145U C150G C169U	0.0032
C82G A111G A120U A145G C150G C169A U176C	0.0099
C82A A111C C150G U176A	0.0084
A111C A120C C150A U176A	0.0343
C82U A111G A145U C150A C169A	0.0078
C82G A111G A145U C150U C169U U176G	0.00549
A111G A120U A145C C150G C169U U176A	0.00272
C82G A111C A120C C169U	0.0148
C82A A111G A120U C150A C169U U176G	0.00235
C82G A111U A120C C150U C169U U176A	0.0146
A111G A120C C150U C169A U176A	0.0182
C82U A120U A145C C150G U176C	0.00864
C82A A111G A120G A145C C150A C169G U176A	0.027
C82A A111G A120G C150G C169A	0.00929
C82G A120U A145C C150G U176A	0.00741
A111G A120C A145G C150U C169U U176G	0.00537
C82A A145G C150A U176A	0.0679
C82U A111U A145U U176C	0.154
C82G A120C A145C C169A	0.00704
C82A A111U A120U A145G C150A U176G	0.00328
C82U A111U A120G A145G C150U C169G U176A	0.0129
C82G A111G A145U C150G C169G U176C	0.00969
C82A A111G A120C U176A	0.0208
C82G A111U A145U C150A C169G U176C	0.0144
C82A A111C C150A U176C	0.0285
C82G A111C A120C A145G C150G C169A U176A	0.0142
C82A A120C A145G C169A U176C	0.034
C82U A111G A120U A145U C150G U176C	0.00492
C82G A120G A145G C169U U176A	0.0208
C82U C150U C169G	0.00973
C82G A111G A120C A145G C150U C169A	0.0104
C82G A111G A120C C150A C169G	0.00943
A111C A145U C169A	0.0348
C150A C169G U176A	0.026
C82U A111U A120C A145C C150U C169G U176A	0.0175
C82U A111G A120U C150U C169U U176A	0.00404
A111C A120U A145C C169A U176A	0.00217
C82U A111C A145U C169G U176C	0.0162
C82U A111G A120G A145U C150A C169G U176G	0.00398
A111C A145U C169A U176G	0.00736
C82G A111U A120U A145U C150A C169G U176G	0.00186
C82A A111C A120U C150G C169G U176A	0.00439
C82U A111G A145C C150U C169G U176C	0.00977
A111U A145C U176A	0.757
